- System: NHEK (F) cells (normal human epidermal keratinocytes of neonatal foreskin cell)
- TEST_PARAMETERS: concentration that reaches 50% of apoptosis, 1 hour incubation
PROPERTY_NAME: LD50 (μM) NHEK (F) cell (µM)
Write down the numeric answer in µM and omit the unit.

Q. Query (compound): Oc1cc(O)cc(Oc2c(O)cc(O)c3c2Oc2c(O)cc(O)c(-c4c(O)cc(O)c5c4Oc4c(O)cc(Oc6c(O)cc(O)cc6O)c(Oc6cc(O)cc(O)c6)c4O5)c2O3)c1 [composition 10] ; field requested: LD50 (μM) NHEK (F) cell
A. 48.2

Q. Look up LD50 (μM) NHEK (F) cell for this compound: Oc1cc(O)cc(Oc2c(O)cc(O)c3c2Oc2c(O)cc(O)c(-c4c(O)cc(O)c5c4Oc4c(O)cc(O)c(Oc6cc(O)cc(O)c6)c4O5)c2O3)c1 [composition 5]
A. 100.4

Q. Please give the measured LD50 (μM) NHEK (F) cell for this compound: Oc1cc(O)cc(Oc2cc(O)c3c(c2)Oc2c(O)cc(O)c(Oc4cc(O)cc(O)c4)c2O3)c1 [composition 8]
A. 93.2

Q. I would be grateful if you could share the reported LD50 (μM) NHEK (F) cell for Oc1cc(O)cc(Oc2c(O)cc(O)c3c2Oc2c(O)cc(O)cc2O3)c1 [composition 1] .
A. 56.4

Q. Name the reported LD50 (μM) NHEK (F) cell value associated with the compound Oc1cc(O)cc(Oc2c(O)cc(O)c3c2Oc2c(cc(O)c(-c4c(O)cc5c(c4O)Oc4c(Oc6cc(O)cc(O)c6)c(O)cc(O)c4O5)c2O)O3)c1 [composition 6]
A. 105.4

Q. Value lookup for LD50 (μM) NHEK (F) cell; key = Oc1cc(O)cc(Oc2c(Oc3c(O)cc(O)cc3O)cc(O)c3c2Oc2c(O)cc(O)cc2O3)c1 [composition 9]
A. 57.2

Q. Which LD50 (μM) NHEK (F) cell reading was recorded for the compound Oc1cc(O)cc(Oc2c(O)cc(O)c3c2Oc2c(O)cc(Oc4c(O)cc(Oc5c(O)cc(O)c6c5Oc5c(O)cc(O)cc5O6)cc4O)cc2O3)c1 [composition 2] ?
A. 48.9

Q. Any idea what LD50 (μM) NHEK (F) cell was measured for Oc1cc(O)cc(Oc2c(O)cc(O)c3c2Oc2c(O)cc4oc5cc(O)cc(O)c5c4c2O3)c1 [composition 7] ?
A. 78.9

* * *

- System: elastase
- PROTOCOL: Inhibition of elastase
- Format: biochemical
- TEST_PARAMETERS: 50 μg/ml, 10 nM elastase, 25° C., 10 min
Would you mind telling me the reported Inhibition of Elastase (%) of each entry?

Q. Report Inhibition of Elastase (%) for Oc1cc(O)cc(Oc2c(O)cc(O)c3c2Oc2c(O)cc(O)c(-c4c(O)cc(O)c5c4Oc4c(O)cc(O)c(Oc6cc(O)cc(O)c6)c4O5)c2O3)c1 please.
A. 90.4%

Q. GET /values?readout=Inhibition of Elastase (%)&item= Oc1cc(O)cc(Oc2c(Oc3c(O)cc(O)cc3O)cc(O)c3c2Oc2c(O)cc(O)cc2O3)c1
A. 82.7%

Q. What does the data say about its Inhibition of Elastase (%)? Entry: Oc1cc(O)cc(Oc2cc(O)c3c(c2)Oc2c(O)cc(O)c(Oc4cc(O)cc(O)c4)c2O3)c1
A. 87.7%

Q. Bench note: what Inhibition of Elastase (%) did Oc1ccc(/C=C/c2cc(O)cc(O)c2)cc1 [rasveratrole, reference compound] show?
A. 48.3%
